Taken from patent US20230365662A1.

Ratio OD(Variant)/OD(WT) for assorted binders
target: HRgpA-6H (Porphyromonas gingivalis) (UniProt P28784)
assay protocol: ELISA on coated HRgpA-6H
Give only the figure.

Example entries and their recorded answers appear below.
| binder | Ratio OD(Variant)/OD(WT) |
| --- | --- |
| KB001 mouse Fab FASEBA VH K64G (Fab, V domains shown) VH: EVQLKQSGPGLVAPSQSLSITCTVSGFSLSIYSVHWVRQPPGKGLEWLGMIWGGGSSDYNSALGSRLSISKDNSKSQVFLKMNSLQTDDTAMYYCARNGNFYAMDYWGQGTSVTVSS VL: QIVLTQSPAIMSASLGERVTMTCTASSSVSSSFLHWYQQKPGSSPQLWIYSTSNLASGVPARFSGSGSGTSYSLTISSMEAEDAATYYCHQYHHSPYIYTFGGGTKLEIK | 0.975 |
| KB001 mouse Fab FASEBA VH G26N (Fab, V domains shown) VH: EVQLKQSGPGLVAPSQSLSITCTVSNFSLSIYSVHWVRQPPGKGLEWLGMIWGGGSSDYNSALKSRLSISKDNSKSQVFLKMNSLQTDDTAMYYCARNGNFYAMDYWGQGTSVTVSS VL: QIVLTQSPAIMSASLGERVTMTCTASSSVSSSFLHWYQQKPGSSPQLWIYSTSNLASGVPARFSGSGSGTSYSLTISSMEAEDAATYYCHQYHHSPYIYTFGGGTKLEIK | 0.876 |

# input for lookup
Prompt: Please look up its Ratio OD(Variant)/OD(WT): KB001 mouse Fab FASEBA VH S57A (Fab, V domains shown) VH: EVQLKQSGPGLVAPSQSLSITCTVSGFSLSIYSVHWVRQPPGKGLEWLGMIWGGGSADYNSALKSRLSISKDNSKSQVFLKMNSLQTDDTAMYYCARNGNFYAMDYWGQGTSVTVSS VL: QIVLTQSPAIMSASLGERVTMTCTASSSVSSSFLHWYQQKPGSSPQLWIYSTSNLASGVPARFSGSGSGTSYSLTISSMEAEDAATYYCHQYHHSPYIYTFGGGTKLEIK
Response: 1.05
